MEASUREMENT CONTEXT: in acetonitrile, 278.15 K

| SMILES | solubility (mole fraction) |
| --- | --- |
| Cc1cc([N+](=O)[O-])ccc1N | 0.0308 |

---

MEASUREMENT CONTEXT: in methanol, 295.65 K
ASSAY METRIC: solubility (mole fraction)

| SMILES | ASSAY METRIC | RECORDED NUMBER |
| --- | --- | --- |
| Cc1cc([N+](=O)[O-])ccc1N | solubility (mole fraction) | 0.0155 |

---

MEASUREMENT CONTEXT: in 2-butanone, 310.65 K

| SMILES | solubility (mole fraction) |
| --- | --- |
| Cc1cc([N+](=O)[O-])ccc1N | 0.174 |

---

MEASUREMENT CONTEXT: in isopropanol, 293.15 K

| SMILES | solubility (mole fraction) |
| --- | --- |
| Cc1cc([N+](=O)[O-])ccc1N | 0.00865 |

---

MEASUREMENT CONTEXT: in toluene, 300.65 K
ASSAY METRIC: solubility (mole fraction)

| SMILES | RECORDED NUMBER |
| --- | --- |
| Cc1cc([N+](=O)[O-])ccc1N | 0.00439 |

---

MEASUREMENT CONTEXT: in isopropanol, 295.65 K
ASSAY METRIC: solubility (mole fraction)

| SMILES | RECORDED NUMBER |
| --- | --- |
| Cc1cc([N+](=O)[O-])ccc1N | 0.00961 |

---

MEASUREMENT CONTEXT: in ethanol, 298.15 K

| SMILES | solubility (mole fraction) |
| --- | --- |
| Cc1cc([N+](=O)[O-])ccc1N | 0.0152 |

---

MEASUREMENT CONTEXT: in ethanol, 290.65 K

| SMILES | solubility (mole fraction) |
| --- | --- |
| Cc1cc([N+](=O)[O-])ccc1N | 0.0117 |

---

MEASUREMENT CONTEXT: in ethanol, 310.65 K
ASSAY METRIC: solubility (mole fraction)

| SMILES | RECORDED NUMBER |
| --- | --- |
| Cc1cc([N+](=O)[O-])ccc1N | 0.0231 |

---

MEASUREMENT CONTEXT: in isopropanol, 300.65 K
ASSAY METRIC: solubility (mole fraction)

| SMILES | ASSAY METRIC | RECORDED NUMBER |
| --- | --- | --- |
| Cc1cc([N+](=O)[O-])ccc1N | solubility (mole fraction) | 0.0118 |

---

MEASUREMENT CONTEXT: in isopropanol, 285.65 K

| SMILES | solubility (mole fraction) |
| --- | --- |
| Cc1cc([N+](=O)[O-])ccc1N | 0.00635 |

---

MEASUREMENT CONTEXT: in n-propanol, 308.15 K

| SMILES | solubility (mole fraction) |
| --- | --- |
| Cc1cc([N+](=O)[O-])ccc1N | 0.0192 |

---

MEASUREMENT CONTEXT: in ethanol, 308.15 K
ASSAY METRIC: solubility (mole fraction)

| SMILES | RECORDED NUMBER |
| --- | --- |
| Cc1cc([N+](=O)[O-])ccc1N | 0.0213 |

---

MEASUREMENT CONTEXT: in isopropanol, 313.15 K

| SMILES | solubility (mole fraction) |
| --- | --- |
| Cc1cc([N+](=O)[O-])ccc1N | 0.0189 |

---

MEASUREMENT CONTEXT: in ethyl acetate, 303.15 K
ASSAY METRIC: solubility (mole fraction)

| SMILES | RECORDED NUMBER |
| --- | --- |
| Cc1cc([N+](=O)[O-])ccc1N | 0.125 |

---

MEASUREMENT CONTEXT: in toluene, 280.65 K
ASSAY METRIC: solubility (mole fraction)

| SMILES | ASSAY METRIC | RECORDED NUMBER |
| --- | --- | --- |
| Cc1cc([N+](=O)[O-])ccc1N | solubility (mole fraction) | 0.00178 |

---

MEASUREMENT CONTEXT: in methanol, 313.15 K
ASSAY METRIC: solubility (mole fraction)

| SMILES | ASSAY METRIC | RESULT |
| --- | --- | --- |
| Cc1cc([N+](=O)[O-])ccc1N | solubility (mole fraction) | 0.027 |

---

MEASUREMENT CONTEXT: in n-butanol, 290.65 K
ASSAY METRIC: solubility (mole fraction)

| SMILES | RESULT |
| --- | --- |
| Cc1cc([N+](=O)[O-])ccc1N | 0.00858 |

---

MEASUREMENT CONTEXT: in ethanol, 288.15 K

| SMILES | solubility (mole fraction) |
| --- | --- |
| Cc1cc([N+](=O)[O-])ccc1N | 0.0107 |

---

MEASUREMENT CONTEXT: in ethyl acetate, 288.15 K
ASSAY METRIC: solubility (mole fraction)

| SMILES | ASSAY METRIC | RECORDED NUMBER |
| --- | --- | --- |
| Cc1cc([N+](=O)[O-])ccc1N | solubility (mole fraction) | 0.0837 |

---

MEASUREMENT CONTEXT: in n-propanol, 298.15 K
ASSAY METRIC: solubility (mole fraction)

| SMILES | RECORDED NUMBER |
| --- | --- |
| Cc1cc([N+](=O)[O-])ccc1N | 0.0136 |

---

MEASUREMENT CONTEXT: in 2-butanone, 283.15 K
ASSAY METRIC: solubility (mole fraction)

| SMILES | RECORDED NUMBER |
| --- | --- |
| Cc1cc([N+](=O)[O-])ccc1N | 0.0955 |

---

MEASUREMENT CONTEXT: in n-propanol, 303.15 K
ASSAY METRIC: solubility (mole fraction)

| SMILES | RECORDED NUMBER |
| --- | --- |
| Cc1cc([N+](=O)[O-])ccc1N | 0.0162 |

---

MEASUREMENT CONTEXT: in acetone, 293.15 K
ASSAY METRIC: solubility (mole fraction)

| SMILES | ASSAY METRIC | RESULT |
| --- | --- | --- |
| Cc1cc([N+](=O)[O-])ccc1N | solubility (mole fraction) | 0.113 |

---

MEASUREMENT CONTEXT: in cyclohexane, 290.65 K
ASSAY METRIC: solubility (mole fraction)

| SMILES | RESULT |
| --- | --- |
| Cc1cc([N+](=O)[O-])ccc1N | 3.87e-05 |

---

MEASUREMENT CONTEXT: in methanol, 293.15 K

| SMILES | solubility (mole fraction) |
| --- | --- |
| Cc1cc([N+](=O)[O-])ccc1N | 0.0142 |

---

MEASUREMENT CONTEXT: in ethanol, 278.15 K

| SMILES | solubility (mole fraction) |
| --- | --- |
| Cc1cc([N+](=O)[O-])ccc1N | 0.00732 |

---

MEASUREMENT CONTEXT: in n-propanol, 280.65 K

| SMILES | solubility (mole fraction) |
| --- | --- |
| Cc1cc([N+](=O)[O-])ccc1N | 0.00701 |

---

MEASUREMENT CONTEXT: in n-propanol, 300.65 K

| SMILES | solubility (mole fraction) |
| --- | --- |
| Cc1cc([N+](=O)[O-])ccc1N | 0.0148 |

---

MEASUREMENT CONTEXT: in toluene, 295.65 K
ASSAY METRIC: solubility (mole fraction)

| SMILES | ASSAY METRIC | RECORDED NUMBER |
| --- | --- | --- |
| Cc1cc([N+](=O)[O-])ccc1N | solubility (mole fraction) | 0.00353 |

---

MEASUREMENT CONTEXT: in acetonitrile, 295.65 K

| SMILES | solubility (mole fraction) |
| --- | --- |
| Cc1cc([N+](=O)[O-])ccc1N | 0.0528 |

---

MEASUREMENT CONTEXT: in cyclohexane, 308.15 K

| SMILES | solubility (mole fraction) |
| --- | --- |
| Cc1cc([N+](=O)[O-])ccc1N | 0.000108 |

---

MEASUREMENT CONTEXT: in ethanol, 295.65 K
ASSAY METRIC: solubility (mole fraction)

| SMILES | ASSAY METRIC | RECORDED NUMBER |
| --- | --- | --- |
| Cc1cc([N+](=O)[O-])ccc1N | solubility (mole fraction) | 0.0139 |
